# TARGET: human ether-à-go-go-related gene (hERG) potassium channel (human)
# ASSAY_COMMENT: primary screen, population patch clamp on CHO cells stably expressing hERG; higher = less effect of the substance
Screen size: about 310,000 compounds; about 14,000 (4.5%) showed an effect of 50% or more. Effects have a minus sign here. What follows is part of a selection rich in strong results, with near analogues and random picks from the rest.
Consider the following compounds; for each one, report its hERG current change (%, negative = inhibition) at 10uM.
Don't forget the unit after the value.

Example compounds with recorded hERG current change (%, negative = inhibition) at 10uM:
[
  {
    "COMPOUND": "Cc1ccc(CN2CCC(CNC(=O)C3CCCN(c4ncnc5c4nc4n5CCCCC4)C3)CC2)cc1 (stereo not shown)",
    "TARGET": "human ether-à-go-go-related gene (hERG) potassium channel (human)",
    "VALUE": "-45%"
  },
  {
    "COMPOUND": "O=C(CCc1nnc(C2CCCCC2)o1)N1CCCCC1CCn1cccn1 (stereo not shown)",
    "TARGET": "human ether-à-go-go-related gene (hERG) potassium channel (human)",
    "VALUE": "3.65%"
  },
  {
    "COMPOUND": "O=C(Nc1ccc(S(=O)(=O)N2CCCCC2)cc1)c1ccco1",
    "TARGET": "human ether-à-go-go-related gene (hERG) potassium channel (human)",
    "VALUE": "-10.7%"
  }
]

Would you mind giving hERG current change (%, negative = inhibition) at 10uM for every compound in the list below?
1. COCCCN1CC(=O)N2C(c3cccc(OC)c3)c3[nH]c4ccccc4c3C[C@H]2C1=O (stereo partly shown)
2. Brc1cccc(CNc2nc3ccccc3n2CCN2CCCCC2)c1
3. CCN(C(=O)C1CCCN(c2ncnc3c2nc2n3CCCCC2)C1)c1cccc(Cl)c1 (stereo not shown)
4. COCCN1CC(=O)N2C(c3cccc(OC)c3)c3[nH]c4ccccc4c3C[C@H]2C1=O (stereo partly shown)
5. C=CCn1c(NCc2ccccc2)nc2ccccc21
6. O=C(Nc1ccc(N2CCOCC2)cc1)c1cccc(S(=O)(=O)N2CCCC2)c1

1. -14.3%
2. -67.8%
3. -62.5%
4. -38.6%
5. -26.4%
6. 1.96%

Count: 3. Required value per item: hERG current change (%, negative = inhibition) at 10uM.
1. Cl.OCCNc1nc2ccccc2n1CCN1CCCCC1
2. O=C(Nc1nc(-c2cccs2)cs1)C1=COCCO1
3. O=C(O)C(F)(F)F.c1cn2c(NC3CCCCC3)c(-c3ccc(SC4CCCCC4)cc3)nc2cn1

1: -30.4%; 2: -15.9%; 3: 9.49%

====

# TARGET: human ether-à-go-go-related gene (hERG) potassium channel (human);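 note: peak tail current of the secondary pulse compared with the same well before compound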
# ASSAY_COMMENT: primary screen, population patch clamp on CHO cells stably expressing hERG; higher = less effect of the substance
In all, about 310,000 compounds went through this assay and about 14,000 (4.5%) showed an effect of 50% or more. Effects have a minus sign here. Shown is part of a subset that was picked to be rich in strong results.
Task for the reader: assign each of the following compounds its reported hERG current change (%, negative = inhibition) at 10uM.
Give bare numbers, in %.

Completed entries (count: 3):
[
  {
    "COMPOUND": "Cc1nn(-c2ccc(F)cc2)c(Cl)c1C(=O)OC(C)C(=O)N(C)C1CCCCC1 (stereo not shown)",
    "UNIT_TAG": "%",
    "VALUE": -59
  },
  {
    "COMPOUND": "CC(=O)Nc1ccc(NC(=O)C(C)OC(=O)c2c(C)nn(-c3ccccc3)c2Cl)cc1 (stereo not shown)",
    "UNIT_TAG": "%",
    "VALUE": -14.8
  },
  {
    "COMPOUND": "O=C(CN1CCN(c2ncc(C(F)(F)F)cc2Cl)CC1)N1CCN(c2ncc(C(F)(F)F)cc2Cl)CC1",
    "UNIT_TAG": "%",
    "VALUE": 11.7
  }
]

Turning now to a further record.
Given CCc1cc(C(=O)N2CCN(c3ncc(C(F)(F)F)cc3Cl)CC2)sc1C , state its recorded hERG current change (%, negative = inhibition) at 10uM. -3.1

====

# TARGET: human ether-à-go-go-related gene (hERG) potassium channel (human, UniProt Q12809);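 note: peak tail current of the secondary pulse compared with the same well before compound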
# Sequence (Q12809 whole entry, looked up): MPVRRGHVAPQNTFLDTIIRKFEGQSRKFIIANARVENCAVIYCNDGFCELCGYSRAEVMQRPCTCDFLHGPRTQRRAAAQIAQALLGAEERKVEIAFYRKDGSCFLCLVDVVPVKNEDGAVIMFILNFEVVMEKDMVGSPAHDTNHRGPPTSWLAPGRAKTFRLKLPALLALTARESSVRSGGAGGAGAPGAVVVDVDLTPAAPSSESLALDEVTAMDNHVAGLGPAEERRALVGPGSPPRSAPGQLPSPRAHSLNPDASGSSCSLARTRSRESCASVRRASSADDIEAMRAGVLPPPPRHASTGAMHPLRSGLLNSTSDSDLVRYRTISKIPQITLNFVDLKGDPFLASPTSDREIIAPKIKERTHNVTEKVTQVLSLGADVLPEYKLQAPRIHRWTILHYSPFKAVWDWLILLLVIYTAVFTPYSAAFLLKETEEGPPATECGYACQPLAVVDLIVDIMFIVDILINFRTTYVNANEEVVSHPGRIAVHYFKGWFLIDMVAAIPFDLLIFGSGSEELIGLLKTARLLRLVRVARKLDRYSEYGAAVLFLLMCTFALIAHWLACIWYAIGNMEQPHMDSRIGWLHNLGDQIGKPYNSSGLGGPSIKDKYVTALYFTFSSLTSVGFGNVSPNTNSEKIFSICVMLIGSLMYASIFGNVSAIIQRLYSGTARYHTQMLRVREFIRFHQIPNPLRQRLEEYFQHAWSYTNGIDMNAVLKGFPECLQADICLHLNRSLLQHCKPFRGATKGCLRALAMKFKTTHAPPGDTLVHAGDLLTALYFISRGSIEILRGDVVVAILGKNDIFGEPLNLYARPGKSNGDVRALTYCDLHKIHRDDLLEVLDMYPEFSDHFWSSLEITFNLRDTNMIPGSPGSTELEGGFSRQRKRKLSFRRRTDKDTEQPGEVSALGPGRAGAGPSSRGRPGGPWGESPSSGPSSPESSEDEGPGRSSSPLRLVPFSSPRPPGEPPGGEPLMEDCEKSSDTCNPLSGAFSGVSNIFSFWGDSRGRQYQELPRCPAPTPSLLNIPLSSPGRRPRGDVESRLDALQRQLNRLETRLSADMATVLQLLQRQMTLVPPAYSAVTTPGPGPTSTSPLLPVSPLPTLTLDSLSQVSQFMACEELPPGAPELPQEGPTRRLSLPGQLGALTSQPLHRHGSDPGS
# ASSAY_COMMENT: primary screen, population patch clamp on CHO cells stably expressing hERG; higher = less effect of the substance
About 14,000 (4.5%) of roughly 310,000 compounds showed an effect of 50% or more. Effects have a minus sign here. The sample holds strong results, similar compounds and a random draw of the others, so the mix is not that of the screen.
What hERG current change (%, negative = inhibition) at 10uM was measured for each of the following?
Give bare numbers, in %.

Below are worked cases with known answers.
[
  {
    "SUBSTANCE_SMILES": "COC(=O)c1cccc(NCN2C(=O)c3ccccc3C2=O)c1",
    "VALUE": 1.11
  },
  {
    "SUBSTANCE_SMILES": "O=C(O)Cn1c(=O)c2c3c(sc2n(Cc2ccc(F)cc2)c1=O)CCCC3",
    "VALUE": 17.9
  },
  {
    "SUBSTANCE_SMILES": "O=C(O)/C(=C\\c1ccc2ccccc2c1)c1cccc2ccccc12",
    "VALUE": 6.53
  }
]

// switching to the query compound
# get_value(readout='hERG current change (%, negative = inhibition) at 10uM', item= CCCN1C(=O)CC(C(=O)OC)=C1C ) 12.9

====

Task for the reader: assign each of the following compounds its reported hERG current change (%, negative = inhibition) at 10uM.
# TARGET: human ether-à-go-go-related gene (hERG) potassium channel (human, UniProt Q12809);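 note: peak tail current of the secondary pulse compared with the same well before compound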
# ASSAY_COMMENT: primary screen, population patch clamp on CHO cells stably expressing hERG; higher = less effect of the substance
Screen size: about 310,000 compounds; about 14,000 (4.5%) showed an effect of 50% or more. Effects have a minus sign here. The entries come from a sample that favours strong results as a whole.
One number for each entry, in %.

Reference set (2 entries):
[
  {
    "COMPOUND": "COc1ccc(CCN(C)C(=O)C2CC(=O)N(Cc3ccc(C)cc3)C2)cc1OC (stereo not drawn)",
    "TARGET": "human ether-à-go-go-related gene (hERG) potassium channel (human, UniProt Q12809)",
    "VALUE": 0.405
  },
  {
    "COMPOUND": "CCN1C(=O)[C@H]2[C@@H](c3ccc(C)cc3)N3C(=O)N(c4ccccc4)C(=O)[C@@]3(CC)[C@H]2C1=O",
    "TARGET": "human ether-à-go-go-related gene (hERG) potassium channel (human, UniProt Q12809)",
    "VALUE": 3.81
  }
]

Items follow; give hERG current change (%, negative = inhibition) at 10uM for each.
1. CCCCNC(=S)N/N=C1\CCCCc2ccccc21
2. O=C(COc1coc(CN2CCN(c3ccccc3)CC2)cc1=O)Nc1ccccc1F
3. CCNC(=S)N/N=C1\CCCCc2ccccc21
4. CCOC(=O)[C@H]1[C@H]2COc3ccc(C)cc3[C@@H]2N2C(=O)CN(Cc3ccc(C)cc3)C(=O)[C@@]12C
5. CCCC(=O)Nc1nnc(Cc2ccccc2)s1

[-64.4, -3.41, -3.93, 4.36, -0.72]

Batch lookup, hERG current change (%, negative = inhibition) at 10uM per entry.
1. CC(C)COP(=O)(c1ccc(N(C)C)cc1)C(O)c1ccc(Br)cc1 (stereo not drawn)
2. Cc1ccc(N2CC(C(=O)N3CCC(C(=O)Nc4cccc(Br)c4)CC3)CC2=O)cc1 (stereo not drawn)
3. O=C(COc1coc(CN2CCN(c3ccccc3)CC2)cc1=O)NC1CCCC1
4. Cc1ccc(NC(=O)COc2coc(CN3CCN(Cc4ccccc4)CC3)cc2=O)cc1
5. COC(=O)c1cc(S(=O)(=O)NCC2CCN(Cc3ccc(Cl)cc3)CC2)cn1C
6. COC(=O)c1cc(S(=O)(=O)NCC2CCN(CCc3cccs3)CC2)cn1C
7. COC(=O)c1cc(S(=O)(=O)NCC2CCN(Cc3cccc(F)c3)CC2)cn1C

8.63
-60.1
-13.6
-73.3
-17
-49.6
-18.5

Returns the measured hERG current change (%, negative = inhibition) at 10uM for the input compound. Input: Cc1cccc(NC(=O)COc2coc(CN3CCN(c4ccccc4)CC3)cc2=O)c1C -28.6

====

# TARGET: human ether-à-go-go-related gene (hERG) potassium channel (human);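 note: peak tail current of the secondary pulse compared with the same well before compound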
# ASSAY_COMMENT: primary screen, population patch clamp on CHO cells stably expressing hERG; higher = less effect of the substance
Screen size: about 310,000 compounds; about 14,000 (4.5%) showed an effect of 50% or more. Effects have a minus sign here. The entries come from a sample that favours strong results as a whole.
REPORTED_ENDPOINT: hERG current change (%, negative = inhibition) at 10uM (%)
Numbers only, in %.

Below, 6 compounds whose answers are already recorded.
[
  {
    "COMPOUND": "CCN(c1ccccc1)S(=O)(=O)c1cccc(C(=O)NCC(c2cccs2)N2CCOCC2)c1 (centres unmarked)",
    "TARGET": "human ether-à-go-go-related gene (hERG) potassium channel (human)",
    "VALUE": -18.7
  },
  {
    "COMPOUND": "O=C(NCCCO)C(=O)Nc1cc2c3c(c1)CCN3C(=O)CC2",
    "TARGET": "human ether-à-go-go-related gene (hERG) potassium channel (human)",
    "VALUE": 11.8
  },
  {
    "COMPOUND": "CCCCN1C(=O)c2ccc(C(=O)Nc3ccccc3N3CCOCC3)cc2C1=O",
    "TARGET": "human ether-à-go-go-related gene (hERG) potassium channel (human)",
    "VALUE": 7.18
  },
  {
    "COMPOUND": "CCOC(=O)c1ccccc1NC(=O)COC(=O)CCC(=O)c1ccccc1",
    "TARGET": "human ether-à-go-go-related gene (hERG) potassium channel (human)",
    "VALUE": 16.3
  },
  {
    "COMPOUND": "COc1ccc(C(=O)Nc2ccccc2N2CCOCC2)cc1S(=O)(=O)N1CCOCC1",
    "TARGET": "human ether-à-go-go-related gene (hERG) potassium channel (human)",
    "VALUE": -17.8
  },
  {
    "COMPOUND": "Cc1ccc(C(=O)Nc2ccccc2N2CCOCC2)cc1S(=O)(=O)N1CCOCC1",
    "TARGET": "human ether-à-go-go-related gene (hERG) potassium channel (human)",
    "VALUE": -55.3
  }
]

Quick request: hERG current change (%, negative = inhibition) at 10uM for each listed item, please.
1. Cc1ccc(NS(=O)(=O)c2cccc(C(=O)NCC(c3ccco3)N3CCCC3)c2)cc1 (centres unmarked)
2. CN(C)C(CNC(=O)c1cc(S(=O)(=O)N(C)c2ccc(F)cc2)ccc1Cl)c1ccco1 (centres unmarked)

1. -47.4
2. -28.3
